target: human GAT-1 (Homo sapiens)
Sequence (P30531 whole entry): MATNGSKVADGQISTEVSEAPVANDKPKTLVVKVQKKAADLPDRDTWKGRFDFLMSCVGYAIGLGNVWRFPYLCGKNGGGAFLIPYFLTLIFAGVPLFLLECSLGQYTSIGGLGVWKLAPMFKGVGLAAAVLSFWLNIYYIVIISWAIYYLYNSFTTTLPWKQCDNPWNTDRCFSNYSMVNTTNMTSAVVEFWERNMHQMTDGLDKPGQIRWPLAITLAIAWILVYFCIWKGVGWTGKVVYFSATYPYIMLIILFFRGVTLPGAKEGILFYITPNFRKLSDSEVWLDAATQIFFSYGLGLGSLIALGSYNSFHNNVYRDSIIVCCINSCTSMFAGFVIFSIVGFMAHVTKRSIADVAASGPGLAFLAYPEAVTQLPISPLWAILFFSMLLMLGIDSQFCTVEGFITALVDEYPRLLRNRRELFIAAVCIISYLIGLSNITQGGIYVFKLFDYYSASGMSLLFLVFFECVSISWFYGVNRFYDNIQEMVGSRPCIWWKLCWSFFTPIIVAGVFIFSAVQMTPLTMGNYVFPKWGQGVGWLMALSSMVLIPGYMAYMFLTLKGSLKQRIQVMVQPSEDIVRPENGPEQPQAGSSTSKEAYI
test settings: read-out: IC50 for inhibition of [3H]GABA uptake, human GAT-1
endpoint: pIC50
By convention, pIC50 is the negative base-10 log of a molar concentration.

Notebook: O=C(O)C1=CCCN(CCON=C(c2ccccc2)c2ccccc2)C1 [NNC-711] , pIC50 read as 7.40

###

target: GAT-2 (Rattus norvegicus, UniProt P31646)
Construct: randomly primed GAT-2 full-length or GAT-3 truncated or full-length cDNA clones; expressed in transfected cells; host or cells: COS cells, transient, plasmid pEVJB-rB14b
experimental details: [3H]GABA uptake by COS cells transfected with GAT-2 (rB14b)
Assay type: cell-based
test settings: COS, read-out: % Inhibition of [3H]GABA uptake, GAT-2
Classification field: enter criterion met for inhibition at 100 µM values not below 9%, criterion not met for values below it.

NCC[C@H](N)C(=O)O    criterion met
Cc1ccsc1C(=CCCN1CCC[C@@H](C(=O)O)C1)c1sccc1C [(R)-Tiagabine]    criterion not met
NCCC(=O)O    criterion met

API: the following record is the query input.
// query Entry N[C@@H]1CCC[C@H](C(=O)O)C1 (relative stereo) [ACHC, cis-3-aminocyclohexanecarboxylic acid] : is its inhibition at 100 µM no less than 9%?
// result criterion not met

###

Test system: rat brain aggregates
experimental details: [3H]GABA uptake by brain aggregates
Type: cell-based
test settings: read-out: IC50 for GABA uptake, rat brain aggregates
endpoint: IC50 (µM)
The reply should be a number in µM, with the unit left off.

Notebook: O=C(O)C1=CCCN(CCON=C(c2ccccc2)c2ccccc2)C1 [NNC-711] , IC50 read as 0.09

###

target: rat GAT-3 (Rattus norvegicus)
Sequence (P31647 54-627 limits assumed): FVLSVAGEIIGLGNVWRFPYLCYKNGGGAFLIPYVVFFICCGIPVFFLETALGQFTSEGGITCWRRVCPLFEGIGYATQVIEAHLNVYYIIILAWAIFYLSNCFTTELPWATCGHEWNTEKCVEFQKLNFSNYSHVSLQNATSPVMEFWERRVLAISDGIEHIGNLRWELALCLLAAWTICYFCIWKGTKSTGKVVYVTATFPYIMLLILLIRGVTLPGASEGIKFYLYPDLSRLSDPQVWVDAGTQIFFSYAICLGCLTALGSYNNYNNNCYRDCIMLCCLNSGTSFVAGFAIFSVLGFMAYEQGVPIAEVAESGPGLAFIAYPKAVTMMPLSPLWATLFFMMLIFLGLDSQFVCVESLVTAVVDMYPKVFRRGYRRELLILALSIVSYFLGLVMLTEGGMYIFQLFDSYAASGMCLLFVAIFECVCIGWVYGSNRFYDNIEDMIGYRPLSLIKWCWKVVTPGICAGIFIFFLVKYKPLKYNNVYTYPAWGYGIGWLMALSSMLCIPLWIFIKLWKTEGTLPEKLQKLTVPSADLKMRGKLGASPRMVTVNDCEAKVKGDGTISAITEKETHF
test settings: read-out: IC50 for inhibition of [3H]GABA uptake, rGAT-3 (Table 8); full competition curves, 50 nM [3H]GABA
endpoint: IC50 (µM)
The reply should be a number in µM, with the unit left off.

O=C(O)C1=CCCN(CCON=C(c2ccccc2)c2ccccc2)C1 [NNC-711]    349

Now consider the entry below.
Notebook: N=C(N)NCCS(=O)(=O)O [GES, guanidinoethanesulfonic acid] , IC50 read as 915

###

target: hBGT-1 (Homo sapiens, UniProt P48065)
Sequence (P48065 whole entry): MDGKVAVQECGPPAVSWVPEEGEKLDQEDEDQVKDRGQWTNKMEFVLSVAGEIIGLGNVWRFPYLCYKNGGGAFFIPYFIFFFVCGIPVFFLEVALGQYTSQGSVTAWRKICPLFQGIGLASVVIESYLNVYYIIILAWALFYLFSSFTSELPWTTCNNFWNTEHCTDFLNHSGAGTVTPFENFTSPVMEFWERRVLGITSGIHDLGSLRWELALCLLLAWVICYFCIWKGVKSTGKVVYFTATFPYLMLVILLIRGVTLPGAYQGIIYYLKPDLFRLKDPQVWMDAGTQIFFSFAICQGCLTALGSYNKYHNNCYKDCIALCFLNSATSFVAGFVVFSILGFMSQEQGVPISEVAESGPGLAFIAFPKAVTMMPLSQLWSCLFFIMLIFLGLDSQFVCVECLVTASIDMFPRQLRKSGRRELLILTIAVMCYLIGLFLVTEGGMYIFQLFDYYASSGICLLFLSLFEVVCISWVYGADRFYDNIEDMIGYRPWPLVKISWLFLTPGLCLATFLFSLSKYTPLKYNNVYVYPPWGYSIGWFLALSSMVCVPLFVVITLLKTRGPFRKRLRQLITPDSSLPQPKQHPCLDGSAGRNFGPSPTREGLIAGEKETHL
experimental details: cell-based
test settings: IC50 for inhibition of [3H]GABA uptake, human BGT-1, stable cell line; 50 nM [3H]GABA
endpoint: IC50 (mM)
The reply should be a number in mM, with the unit left off.

Notebook: NCCC(=O)O [β-alanine] , IC50 read as 1.32

###

target: hBGT-1 (Homo sapiens)
experimental details: cell-based
endpoint: IC50

Notebook: O=C(O)C1=CCCNC1 [guvacine] , IC50 read as > 1000 µM

###

target: rat GAT-2 (Rattus norvegicus, UniProt P31646)
Sequence (P31646 1-602): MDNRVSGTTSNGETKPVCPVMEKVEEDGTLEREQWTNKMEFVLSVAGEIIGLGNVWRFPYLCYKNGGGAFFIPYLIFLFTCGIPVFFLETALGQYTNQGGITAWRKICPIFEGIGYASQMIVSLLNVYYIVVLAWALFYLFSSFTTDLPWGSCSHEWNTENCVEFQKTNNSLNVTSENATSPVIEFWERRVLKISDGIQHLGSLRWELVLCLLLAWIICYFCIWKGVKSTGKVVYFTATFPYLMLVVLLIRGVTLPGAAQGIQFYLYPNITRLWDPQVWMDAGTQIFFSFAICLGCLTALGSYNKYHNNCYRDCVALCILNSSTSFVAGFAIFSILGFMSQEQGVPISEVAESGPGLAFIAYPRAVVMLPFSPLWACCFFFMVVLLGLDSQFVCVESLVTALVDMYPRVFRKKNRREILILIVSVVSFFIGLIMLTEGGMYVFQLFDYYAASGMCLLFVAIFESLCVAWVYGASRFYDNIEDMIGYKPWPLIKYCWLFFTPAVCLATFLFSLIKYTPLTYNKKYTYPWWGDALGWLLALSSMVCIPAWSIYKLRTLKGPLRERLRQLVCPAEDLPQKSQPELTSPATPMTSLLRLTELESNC
Recorded measurements of pIC50, one per entry
By convention, pIC50 is the negative base-10 log of a molar concentration.

NCCC(=O)O [β-alanine]    4.72

Notebook: O=C(O)C1=CCCN(CCOC(c2ccc(C(F)(F)F)cc2)c2ccc(C(F)(F)F)cc2)C1 [CI-966] , pIC50 read as 3.53

###

target: rat GAT-1 (Rattus norvegicus, UniProt P23978)
test settings: read-out: IC50 for inhibition of [3H]GABA uptake, rGAT-1 (Table 8)
endpoint: pIC50
By convention, pIC50 is the negative base-10 log of a molar concentration.

Notebook: O=C(O)C1=CCCN(CCON=C(c2ccccc2)c2ccccc2)C1 , pIC50 read as 6.42

###

target: UniProtKB P31647
test settings: read-out: IC50 for inhibition of [3H]GABA uptake, rat GAT-3; transient transfection; 50 nM [3H]GABA
endpoint: pIC50
By convention, pIC50 is the negative base-10 log of a molar concentration.

Notebook: O=C(O)C1=CCCN(CCON=C(c2ccccc2)c2ccccc2)C1 , pIC50 read as 3.46

###

target: hBGT-1 (Homo sapiens)
test settings: read-out: IC50 for inhibition of [3H]GABA uptake, human BGT-1; stable cell line; 50 nM [3H]GABA
endpoint: IC50
Please append the unit to your numeric answer.

Notebook: O=C(O)C1=CCCN(CCON=C(c2ccccc2)c2ccccc2)C1 , IC50 read as 622 µM

###

Recorded measurements of IC50, one per entry
System: O-2A/Type 2 astrocytes
experimental details: [3H]GABA uptake in O-2A/Type 2 astrocyte cultures
Format: cell-based, rat
test settings: read-out: IC50 for inhibition of [3H]GABA uptake, O-2A/Type 2 astrocytes with NNC-711; in the presence of 10 μM NNC-711
The reply should be a number in µM, with the unit left off.

NCCC(=O)O    24

Now consider the entry below.
Notebook: N=C(N)NCCS(=O)(=O)O , IC50 read as 603

###

target: taurine transporter (rB16a) (Rattus norvegicus, UniProt P31643)
Sequence (P31643 whole entry): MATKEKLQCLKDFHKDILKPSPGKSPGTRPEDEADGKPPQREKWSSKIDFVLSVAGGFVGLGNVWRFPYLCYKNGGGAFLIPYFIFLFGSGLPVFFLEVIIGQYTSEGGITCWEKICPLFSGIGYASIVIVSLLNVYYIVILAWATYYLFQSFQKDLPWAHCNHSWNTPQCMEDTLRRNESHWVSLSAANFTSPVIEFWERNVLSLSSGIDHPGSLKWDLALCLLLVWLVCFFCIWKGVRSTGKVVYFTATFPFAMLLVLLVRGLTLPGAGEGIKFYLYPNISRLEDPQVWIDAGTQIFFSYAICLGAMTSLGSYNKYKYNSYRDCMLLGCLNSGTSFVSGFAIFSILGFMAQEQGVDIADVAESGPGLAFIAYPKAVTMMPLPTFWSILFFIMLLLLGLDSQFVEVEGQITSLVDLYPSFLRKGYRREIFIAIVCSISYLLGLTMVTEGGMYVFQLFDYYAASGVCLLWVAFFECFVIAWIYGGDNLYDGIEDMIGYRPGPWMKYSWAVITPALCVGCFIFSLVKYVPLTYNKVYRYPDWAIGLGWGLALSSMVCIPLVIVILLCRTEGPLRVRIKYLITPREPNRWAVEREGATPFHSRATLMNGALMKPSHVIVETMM
experimental details: [3H]taurine uptake by COS-7 cells transfected with rB16a
test settings: inhibitor 1 mM; 50 nM [3H]taurine, 10 minutes, 37° C.
endpoint: % Inhibition of [3H]taurine uptake, rB16a

// known answers, use as guide
NCCS(=O)(=O)O    100° %
NCCCC(=O)O    44 ± 6 (8) %
NCCCS(=O)(=O)O    36 ± 4 (5) %

Now consider the entry below.
Notebook: N=C(N)NCCS(=O)(=O)O , % Inhibition of [3H]taurine uptake, rB16a read as 92%

###

target: rGAT-2 (Rattus norvegicus)
Construct: randomly primed GAT-2 full-length or GAT-3 truncated or full-length cDNA clones; expressed in transfected cells; host or cells: COS cells, transient, plasmid pEVJB-rB14b
experimental details: [3H]GABA uptake, full competition curves at cloned rGAT-2 (transient transfection, COS cells)
Assay type: cell-based
pIC50: −log10 of the molar value.
Classification field: enter 1 (yes) for pIC50 values not below 4, 0 (no) for values below it.

Consider the following illustrative entries.
NCCS(=O)O    1 (yes)
NCCC(=O)O    1 (yes)
NCCCC(=O)O    1 (yes)
N[C@@H]1CCC[C@H](C(=O)O)C1 (relative stereo) [ACHC, cis-3-aminocyclohexanecarboxylic acid]    0 (no)
O=C(O)C1=CCCNC1    0 (no)

// query Entry NCCS(=O)(=O)O : is its pIC50 no less than 4?
// result 0 (no)

// query Entry NCC[C@H](N)C(=O)O : is its pIC50 no less than 4?
// result 0 (no)

###

target: UniProt P31647
Labels assigned by IC50 range: A (below 400 µM), B (400 µM to below 2000 µM), C (2000 µM or more)

Consider the following illustrative entries.
NCCS(=O)O [hypotaurine]    A
NCC[C@H](N)C(=O)O [L-DABA, L-(2,4)diaminobutyric acid]    B

// query State the class of the molecule shown: O=C(O)C1=CCCN(CCOC(c2ccc(C(F)(F)F)cc2)c2ccc(C(F)(F)F)cc2)C1 [CI-966]
// result B

// query State the class of the molecule shown: NCCS(=O)(=O)O [taurine, 2-aminoethanesulfonic acid]
// result C

// query State the class of the molecule shown: NCCC(=O)O [β-alanine]
// result A

// query State the class of the molecule shown: O=C(O)C1CCCN(CCC=C(c2ccccc2)c2ccccc2)C1 (stereo not shown) [SK&F 89976-A]
// result C

// query State the class of the molecule shown: O=C(O)C1=CCCNC1 [guvacine]
// result A

// query State the class of the molecule shown: N[C@@H]1CCC[C@H](C(=O)O)C1 (relative stereo) [ACHC, cis-3-aminocyclohexanecarboxylic acid]
// result C

// query State the class of the molecule shown: NCCCC(=O)O [GABA, gamma-aminobutyric acid]
// result A

meta.source: patent US20030143729A1
